# Assay system: Type-1 angiotensin II receptor (Oryctolagus cuniculus)
# Sequence (P34976 whole entry): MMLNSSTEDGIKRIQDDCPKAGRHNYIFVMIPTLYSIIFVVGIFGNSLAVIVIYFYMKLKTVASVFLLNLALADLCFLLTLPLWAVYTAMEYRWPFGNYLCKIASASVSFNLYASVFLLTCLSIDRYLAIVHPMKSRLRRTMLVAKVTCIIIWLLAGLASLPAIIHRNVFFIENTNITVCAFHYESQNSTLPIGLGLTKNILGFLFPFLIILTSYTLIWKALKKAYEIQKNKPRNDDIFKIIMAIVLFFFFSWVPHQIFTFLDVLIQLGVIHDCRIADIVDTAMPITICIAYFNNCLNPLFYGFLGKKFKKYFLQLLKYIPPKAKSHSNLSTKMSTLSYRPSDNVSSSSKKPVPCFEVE
Measurement kind: IC50 (nM)

INSERT INTO results (compound_smiles, value) VALUES
  ('CCCCc1nn(-c2ccccc2C(F)(F)F)c(=O)n1Cc1ccc(-c2ccccc2S(=O)(=O)NC(=O)c2occ(Cl)c2Cl)cc1', 0.19),
  ('CCCCc1nn(-c2ccccc2C(F)(F)F)c(=O)n1Cc1ccc(-c2ccccc2S(=O)(=O)NC(=O)C(c2ccccc2)c2ccccc2)cc1', 2.8);

[I] CCCCc1nn(-c2ccccc2C(F)(F)F)c(=O)n1Cc1ccc(-c2ccccc2S(=O)(=O)NC(=O)c2cc(C)oc2C)cc1
[II] CCCCc1nn(-c2ccccc2C(F)(F)F)c(=O)n1Cc1ccc(-c2ccccc2S(=O)(=O)NC(=O)OC(C)(C)C)cc1
Short answer wanted: higher IC50, I or II ? State your choice using its label.
I
(I: 1 nM, II: 0.45 nM)
